Target: p70S6K(h) (Homo sapiens, UniProt P23443)
Sequence (P23443 whole entry): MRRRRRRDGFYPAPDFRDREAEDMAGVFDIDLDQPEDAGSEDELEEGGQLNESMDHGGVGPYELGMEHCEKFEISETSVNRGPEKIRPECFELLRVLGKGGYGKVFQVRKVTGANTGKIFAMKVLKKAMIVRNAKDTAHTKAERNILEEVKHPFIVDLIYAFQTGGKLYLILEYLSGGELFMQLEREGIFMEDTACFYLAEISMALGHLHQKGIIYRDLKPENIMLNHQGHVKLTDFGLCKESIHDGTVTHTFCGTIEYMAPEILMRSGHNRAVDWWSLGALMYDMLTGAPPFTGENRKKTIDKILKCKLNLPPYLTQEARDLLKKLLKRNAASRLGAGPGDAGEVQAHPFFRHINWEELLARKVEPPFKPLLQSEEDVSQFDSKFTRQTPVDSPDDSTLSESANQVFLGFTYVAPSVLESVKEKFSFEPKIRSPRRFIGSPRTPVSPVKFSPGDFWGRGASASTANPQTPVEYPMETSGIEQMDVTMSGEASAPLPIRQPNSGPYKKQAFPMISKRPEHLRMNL
Assay: Kinase Profiling Assay
Format: biochemical
Settings: 100 μM peptide
Each entry below lists one item and its recorded p70S6K(h) % activity value.
Report the figure in % without appending any unit label.

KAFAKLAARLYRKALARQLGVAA [MMI-0400] = 33
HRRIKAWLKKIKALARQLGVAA (Mammalian) [MMI-0500] = 3
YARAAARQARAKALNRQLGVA (Mammalian) [MMI-0200] = 84

Below: the item to evaluate.
I have this sequence here, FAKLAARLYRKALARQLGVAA [MMI-0300] , and I need its recorded p70S6K(h) % activity.
35

----------
Target: EGFR(T790M,L858R)(h) (Homo sapiens, UniProt P00533, L858R/T790M)
Assay: Kinase Profiling Assay
Type: biochemical
Settings: 100 μM peptide
Protocol: Every kinase activity measurement was conducted in duplicate. In addition to determining the IC50 of the compound, the specificity of MK2 inhibitory peptides was assessed by examining activities of all 266 human kinases available for testing in the Millipore kinase profiling service (Table 1).
measured_attribute: EGFR(T790M,L858R)(h) % activity (%)
Report the figure in % without appending any unit label.

Some entries whose results are on file:
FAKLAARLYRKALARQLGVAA [MMI-0300] = 85
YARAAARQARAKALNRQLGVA (Mammalian) [MMI-0200] = 108
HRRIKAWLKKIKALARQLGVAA (Mammalian) [MMI-0500] = 53

Below: the item to evaluate.
I have this sequence here, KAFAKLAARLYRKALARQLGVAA [MMI-0400] , and I need its recorded EGFR(T790M,L858R)(h) % activity.
78

----------
Each entry below lists one item and its recorded ALK(h) % activity value.
Biological target: ALK(h) (Homo sapiens, UniProt Q9UM73)
Sequence (Q9UM73 19-1620): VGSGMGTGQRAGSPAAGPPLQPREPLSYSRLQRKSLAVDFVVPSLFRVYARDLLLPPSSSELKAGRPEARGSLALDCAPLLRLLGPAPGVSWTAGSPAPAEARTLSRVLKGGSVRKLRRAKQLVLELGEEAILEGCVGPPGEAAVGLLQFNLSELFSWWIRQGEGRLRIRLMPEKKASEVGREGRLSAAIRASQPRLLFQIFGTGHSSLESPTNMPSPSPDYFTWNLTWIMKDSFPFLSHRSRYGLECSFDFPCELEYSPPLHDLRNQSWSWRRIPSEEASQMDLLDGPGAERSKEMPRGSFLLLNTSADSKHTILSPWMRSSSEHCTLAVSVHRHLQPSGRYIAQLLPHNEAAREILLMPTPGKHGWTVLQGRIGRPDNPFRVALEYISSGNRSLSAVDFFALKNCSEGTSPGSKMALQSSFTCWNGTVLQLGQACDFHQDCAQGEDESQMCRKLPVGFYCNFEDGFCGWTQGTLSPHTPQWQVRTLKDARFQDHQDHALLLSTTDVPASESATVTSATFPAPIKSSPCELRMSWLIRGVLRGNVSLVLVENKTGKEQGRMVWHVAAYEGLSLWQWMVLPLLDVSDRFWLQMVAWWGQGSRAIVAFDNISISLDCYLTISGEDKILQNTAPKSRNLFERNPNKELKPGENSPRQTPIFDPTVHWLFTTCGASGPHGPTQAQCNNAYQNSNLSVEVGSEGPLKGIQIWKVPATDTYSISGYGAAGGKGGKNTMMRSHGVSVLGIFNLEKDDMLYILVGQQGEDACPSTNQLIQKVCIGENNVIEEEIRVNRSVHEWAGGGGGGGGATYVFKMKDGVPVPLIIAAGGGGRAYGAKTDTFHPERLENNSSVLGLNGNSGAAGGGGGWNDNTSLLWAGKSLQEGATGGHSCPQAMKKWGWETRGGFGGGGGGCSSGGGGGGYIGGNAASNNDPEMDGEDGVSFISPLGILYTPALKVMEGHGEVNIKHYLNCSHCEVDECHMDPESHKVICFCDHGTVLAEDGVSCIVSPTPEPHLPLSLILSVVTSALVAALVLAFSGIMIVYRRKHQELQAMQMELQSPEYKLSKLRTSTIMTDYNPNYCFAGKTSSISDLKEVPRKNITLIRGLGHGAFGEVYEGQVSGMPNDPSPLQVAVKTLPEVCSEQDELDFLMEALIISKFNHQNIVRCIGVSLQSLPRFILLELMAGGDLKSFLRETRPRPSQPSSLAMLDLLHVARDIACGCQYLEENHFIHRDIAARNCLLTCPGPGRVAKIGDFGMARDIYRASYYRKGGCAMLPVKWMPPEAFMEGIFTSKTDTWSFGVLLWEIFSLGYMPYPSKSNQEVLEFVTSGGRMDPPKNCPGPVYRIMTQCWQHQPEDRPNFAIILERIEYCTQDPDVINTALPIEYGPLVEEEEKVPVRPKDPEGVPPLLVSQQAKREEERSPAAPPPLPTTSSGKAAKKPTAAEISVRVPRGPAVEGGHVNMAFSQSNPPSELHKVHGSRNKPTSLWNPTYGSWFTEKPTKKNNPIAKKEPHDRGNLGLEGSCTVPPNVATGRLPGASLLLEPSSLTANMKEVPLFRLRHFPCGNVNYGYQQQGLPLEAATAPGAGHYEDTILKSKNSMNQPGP
Assay: Kinase Profiling Assay
Format: biochemical
Conditions: 100 μM peptide
Report the figure in % without appending any unit label.

Some entries whose results are on file:
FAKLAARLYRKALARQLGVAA [MMI-0300] = 19
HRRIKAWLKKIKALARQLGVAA (Mammalian) [MMI-0500] = 12
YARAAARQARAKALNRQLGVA (Mammalian) [MMI-0200] = 95

Below: the item to evaluate.
I have this sequence here, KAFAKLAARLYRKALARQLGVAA [MMI-0400] , and I need its recorded ALK(h) % activity.
16

----------
Molecular target: MSK1(h) (Homo sapiens, UniProt O75582)
Sequence (O75582 whole entry): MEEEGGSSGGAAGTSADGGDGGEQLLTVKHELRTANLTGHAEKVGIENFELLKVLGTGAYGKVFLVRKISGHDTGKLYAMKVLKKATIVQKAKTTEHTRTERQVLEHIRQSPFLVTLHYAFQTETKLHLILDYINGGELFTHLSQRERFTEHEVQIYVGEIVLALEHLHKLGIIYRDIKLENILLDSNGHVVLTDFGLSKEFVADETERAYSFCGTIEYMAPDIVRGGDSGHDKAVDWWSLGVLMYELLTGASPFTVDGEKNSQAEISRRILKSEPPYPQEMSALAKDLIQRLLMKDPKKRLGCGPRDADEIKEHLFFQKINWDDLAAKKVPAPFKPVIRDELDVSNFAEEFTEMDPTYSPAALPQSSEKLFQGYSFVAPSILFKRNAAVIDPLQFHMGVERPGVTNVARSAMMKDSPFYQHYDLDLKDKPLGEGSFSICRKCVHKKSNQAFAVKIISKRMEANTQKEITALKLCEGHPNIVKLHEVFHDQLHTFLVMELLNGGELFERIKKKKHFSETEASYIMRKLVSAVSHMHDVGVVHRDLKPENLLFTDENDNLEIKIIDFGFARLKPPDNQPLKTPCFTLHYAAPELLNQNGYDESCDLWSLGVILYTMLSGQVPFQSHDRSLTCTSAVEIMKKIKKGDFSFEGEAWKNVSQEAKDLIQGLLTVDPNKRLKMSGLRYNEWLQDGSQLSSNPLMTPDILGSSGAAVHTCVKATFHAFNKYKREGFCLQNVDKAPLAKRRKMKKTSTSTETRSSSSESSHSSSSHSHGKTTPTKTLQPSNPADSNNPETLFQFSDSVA
Assay: Kinase Profiling Assay
Type: biochemical
Settings: 100 μM peptide
Method: Every kinase activity measurement was conducted in duplicate. In addition to determining the IC50 of the compound, the specificity of MK2 inhibitory peptides was assessed by examining activities of all 266 human kinases available for testing in the Millipore kinase profiling service (Table 1).
Each entry below lists one item and its recorded MSK1(h) % activity value.
Report the figure in % without appending any unit label.

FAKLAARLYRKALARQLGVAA [MMI-0300] = 32
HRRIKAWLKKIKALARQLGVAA (Mammalian) [MMI-0500] = 8
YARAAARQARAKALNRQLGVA (Mammalian) [MMI-0200] = 50

Below: the item to evaluate.
I have this sequence here, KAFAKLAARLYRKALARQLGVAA [MMI-0400] , and I need its recorded MSK1(h) % activity.
28

// provenance: patent US10562947B2
